test system: Human alphaherpesvirus 1; test: Inhibition of HSV-1 ribonucleotide reductase; design: concentration or dose not given beside the values; conditions: concentration not given here
assay_readout: inhibition (%)

Query: Item: `C/C(=N\N=C(/S)N/N=C(\S)Nc1ccc(C(F)(F)F)cc1)c1ccccn1` Test system: Human alphaherpesvirus 1 Read-out: inhibition Value: ?
Reply: 59

Query: Also `Cc1cccc(/C=N/N=C(\S)N/N=C(\S)Nc2ccccc2Cl)n1` , if possible.
Reply: 41

Query: Also `C/N=C(\S)N/N=C(\S)N/N=C(\C)c1ccccn1` , if possible.
Reply: 17

Query: Also `C/C(=N\N=C(/S)N/N=C(\S)Nc1ccc(I)cc1)c1ccccn1` , if possible.
Reply: 24

1 = COc1cccc(N/C(S)=N/N=C(\S)N/N=C(\C)c2ccccn2)c1
2 = C/C(=N\N=C(/S)N/N=C(\S)Nc1ccccc1Cl)c1cccc[n+]1[O-]
3 = COc1c(Cl)cccc1/N=C(\S)N/N=C(\S)N/N=C(\C)c1ccccn1
Query: Order each entry by recorded inhibition, climbing from the minimum. Please, when replying, give the labels in the order that was requested.
Reply: 3, 1, 2

---

molecular target: Ribonucleoside-diphosphate reductase RR1 (Homo sapiens) (UniProt P23921+Q7LG56+P31350); experiment: Inhibitory index against human ribonucleotide reductase; type: protein-complex assay
assay_readout: Inhibitory index

1 = COc1cccc(N/C(S)=N/N=C(\S)N/N=C(\C)c2ccccn2)c1
2 = CC(C)C/C(=N\N=C(/S)N/N=C(\S)Nc1ccccc1Cl)c1ccccn1
Query: For the pair 1 and 2 , which entry has the numerically smaller recorded Inhibitory index? Indicate your choice by writing its label.
Reply: 2
(2: 0.33, 1: 1.7)

A = C/C(=N\N=C(/S)N/N=C(\S)Nc1ccccn1)c1ccccn1
B = C/C(=N\N=C(/S)N/N=C(\S)Nc1cccc(Cl)c1)c1ccccn1
Query: For the pair A and B , which entry has the numerically smaller recorded Inhibitory index? Indicate your choice by writing its label.
Reply: B
(B: 0.9, A: 2)

---

molecular target: Ribonucleoside-diphosphate reductase RR1 (Homo sapiens) (UniProt P23921+Q7LG56+P31350); experiment: Apparent enzyme activity measured as the ratio of HSV-1 and human enzyme inhibition induces; assay type: functional; details: Human alphaherpesvirus 1
assay_readout: Apparent selectivity (HSV-1/human inhibition index ratio)

Take a look at these entries with their results.
Query: Apparent selectivity (HSV-1/human inhibition index ratio) lookup needed for `C/C(=N\N/C(S)=N/N=C(\S)N(C)C)c1ccccn1` , thanks.
Reply: 3

Query: Also `Cc1cccc(/C=N/N=C(\S)N/N=C(\S)Nc2ccccc2Cl)n1` , if possible.
Reply: 15

Query: Also `C/C(=N\N=C(/S)N/N=C(\S)Nc1ccccc1C)c1ccccn1` , if possible.
Reply: 4.6

Query: Also `COc1ccc(N/C(S)=N/N=C(\S)N/N=C(\C)c2ccccn2)cc1` , if possible.
Reply: 28

Query: Also `C/C(=N\N=C(/S)N/N=C(\S)Nc1ccccc1Br)c1ccccn1` , if possible.
Reply: 210

Query: Also `C/C(=N\N=C(/S)N/N=C(\S)Nc1ccccc1Cl)c1ccccn1` , if possible.
Reply: 21

P = C/C(=N\N=C(/S)N/N=C(\S)Nc1ccc(C#N)cc1)c1ccccn1
Q = C/C(=N\N=C(/S)N/N=C(\S)Nc1cc(Cl)c(Cl)cc1Cl)c1ccccn1
Query: For the pair P and Q , which entry has the numerically smaller recorded Apparent selectivity (HSV-1/human inhibition index ratio)? Indicate your choice by writing its label.
Reply: P
(P: 17, Q: 680)
